Where do these numbers come from? They come from paper PMC5540273.

A collection of molecules and their measured %Inh
Test system: PAK1
experimental_setup: concentration: 1 μM, replicates: in singlicate; n = 1;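 further: KINOMEscan kinase panel screen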
Numeric answer only, unit % assumed.

[[record]]
chemical_string = "FC(F)(F)c1ccc(/C=C/c2cncnc2Nc2ccc3[nH]c(Cc4ccccc4)nc3c2)cc1"
recorded_result = 4

[[record]]
chemical_string = "C[C@@H]1CC[C@@H](C(=O)Nc2ccccc2)CN1c1cc(-c2ccc3c(N)n[nH]c3c2)nc(N)n1"
recorded_result = 20

[[record]]
chemical_string = "Nc1ncc(-c2cccnc2)c2scc(-c3ccc4c(c3)CCN4C(=O)Cc3ccccc3)c12"
recorded_result = 18

[[record]]
chemical_string = "COc1cc(Nc2ncc3c(C)nc(-c4cc5ccccc5[nH]4)n3n2)cc(OC)c1OC"
recorded_result = 5

[[record]]
chemical_string = "Cl.c1ccc(-c2ccc3c(Nc4ccc5[nH]ccc5c4)ccnc3c2)nc1"
recorded_result = 0


Give PAK1 %Inh for CN(C)Cc1ccc(-c2ccc3c(Nc4ccc(Oc5ccccn5)cc4)ccnc3c2)o1
0

Return %Inh measured with PAK1 given this molecule: Clc1ccc(-c2nn3ncccc3c2-c2ccnc(Nc3ccc4c(c3)OCCO4)n2)cc1
0

---

Test system: NIK
Construct: gene MAP3K14
experimental_setup: concentration: 1 μM, replicates: in singlicate; n = 1
property: %Inh (%)
Could you give me the number in %? Just the number is fine.

As a guide, the following entries are already answered.
[[record]]
molecule = "Cc1ccc(C)c(NC(=O)NC2CCN(c3ccnc(Nc4ccc(F)cc4)n3)C2)c1 (stereo not drawn)"
property = "%Inh"
value_units = "%"
recorded_result = 22

[[record]]
molecule = "COCCOCCOc1cc2ncc3c4ccc(C#N)cc4[nH]c3c2cc1OC"
property = "%Inh"
value_units = "%"
recorded_result = 65

[[record]]
molecule = "COc1cc(Nc2nccc(N3CCC(NC(=O)c4cc5ccccc5s4)C3)n2)cc(OC)c1OC (stereo not drawn)"
property = "%Inh"
value_units = "%"
recorded_result = 4

[[record]]
molecule = "C[C@@H]1CC[C@@H](C(=O)Nc2ccccc2)CN1c1cc(-c2ccc3c(N)n[nH]c3c2)nc(N)n1"
property = "%Inh"
value_units = "%"
recorded_result = 0

[[record]]
molecule = "Nc1ncc(-c2ccc3nccc(-c4ccncc4)c3c2)cc1S(=O)(=O)N1CCOCC1"
property = "%Inh"
value_units = "%"
recorded_result = 0


Given the entry Cl.Cl.NCC(NC(=O)c1cc(-c2ccccc2)c(-c2ccnc3[nH]ccc23)s1)c1ccccc1 (stereo not drawn) , what %Inh was observed with NIK?
17

---

Tested on: CIT
experimental_setup: concentration: 1 μM, replicates: in singlicate; n = 1
Outcome label depends on %Inh relative to 20%: at/above gives class 1, below gives class 0.

Worked examples follow.
[[record]]
compound = "COC(=O)Nc1nc2cc(Oc3ccc(NC(=O)Nc4cc(C(F)(F)F)ccc4F)cn3)ccc2[nH]1.Cl.Cl"
class = "class 1"

[[record]]
compound = "O=C(NC1CCN(c2ccnc(Nc3ccc(F)cc3)n2)C1)c1cc2ccccc2s1 (stereo not drawn)"
class = "class 1"

[[record]]
compound = "CN(c1ccc(NC(=O)Nc2cc(C(F)(F)F)ccc2F)cc1)c1ccnc(Nc2ccc(S(N)(=O)=O)cc2)n1"
class = "class 1"


Does the reported %Inh for Nc1n[nH]c2cnc(-c3ccccc3)cc12 fall at or above the 20% mark?
class 0

Is %Inh for COc1cc(Nc2nccc(N3CCC(NC(=O)Nc4cccc(C(C)=O)c4)C3)n2)cc(OC)c1OC (stereo not drawn) at or above 20%?
class 0

I'd appreciate it if you could say whether CCn1c(-c2nonc2N)nc2c(C#CC(C)(C)O)nc(OC[C@H](N)c3ccccc3)cc21 has %Inh at least equal to 20%.
class 1

Reported %Inh reaches at least 20% for CN1CCN(Cc2cccc(-c3ccc4c(Nc5ccc(Oc6ccccc6)cc5)ccnc4c3)c2)CC1 ?
class 0

Entry O=c1[nH]cc(-c2ccc(N3CCOCC3)cc2)c2sc(-c3cn[nH]c3)cc12 : is its %Inh no less than 20%?
class 1

Please check the record C[C@@H]1CC[C@@H](C(=O)Nc2ccccc2)CN1c1cc(-c2ccc3c(N)n[nH]c3c2)nc(N)n1 and state if its %Inh is at or above 20%.
class 0

Quick check, %Inh >= 20%? COc1cccc(C(=O)Nc2cccc(Oc3ccc4nc(NC(=O)C5CC5)cn4n3)c2)c1
class 1

Hi, just wondering whether Cc1occc1-c1ncc(OC[C@@H](N)Cc2c[nH]c3ccccc23)cc1-c1ccc2[nH]nc(C)c2c1.O=C(O)C(F)(F)F shows %Inh of 20% or higher.
class 1

Assess whether reported %Inh for O=C(Nc1n[nH]c2cc(-c3ccoc3)ccc12)C1CC1 sits at 20% or higher.
class 0

---

System: CASK
experimental_setup: concentration: 1 μM, replicates: in singlicate; n = 1
# %Inh listing for each entry below
// return the numeric value with its unit appended

[[record]]
compound = "Cc1ccc(C(=O)N2CC[C@@H](O)C2)cc1-n1c(C)cc(OCc2ccc(F)cc2F)c(Br)c1=O"
target_or_system = "CASK"
recorded_result = "0%"


// %Inh lookup, key: COc1cccc(NC(=O)NC2CCN(c3ccnc(Nc4cc(OC)c(OC)c(OC)c4)n3)C2)c1 (stereo not drawn)
15%

Query: %Inh; subject: C[C@@H](Oc1cc(-n2cnc3cc(-c4ccnc(NCCS(C)(=O)=O)c4)ccc32)sc1C(N)=O)c1ccccc1Cl
57%

---

System: PDGFRB
experimental_setup: concentration: 1 μM, replicates: in singlicate; n = 1
property: %Inh (%)
Write down the numeric answer in % and omit the unit.

[[record]]
chemical_string = "Cl.c1ccc(-c2ccc3c(Nc4ccc5[nH]ccc5c4)ccnc3c2)nc1"
property = "%Inh"
value_units = "%"
recorded_result = 99.9

[[record]]
chemical_string = "Cc1ccc(C(=O)N2CC[C@@H](O)C2)cc1-n1c(C)cc(OCc2ccc(F)cc2F)c(Br)c1=O"
property = "%Inh"
value_units = "%"
recorded_result = 77

[[record]]
chemical_string = "CN(C)Cc1ccc(-c2ccc3c(Nc4ccc(Oc5ccccn5)cc4)ccnc3c2)o1"
property = "%Inh"
value_units = "%"
recorded_result = 98.7


Here's the next entry for you.
Returns the measured %Inh for the input compound. Input: O=C(O)C(F)(F)F.O=C(O)C(F)(F)F.O=c1[nH]ccc2nc(N[C@@H]3CCCNC3)nc(Nc3ccc(S(=O)(=O)N4CCOCC4)cc3)c12
100

---

Tested on: ERK4
Construct: gene MAPK4
experimental_setup: concentration: 1 μM, replicates: in singlicate; n = 1
property: %Inh (%)
Note: unit % is implicit; provide only the numeric part.

As a guide, the following entries are already answered.
[[record]]
chemical_string = "Cn1cc(-c2ccc3c(c2)CCN3C(=O)Cc2cccc(F)c2)c2c(N)ncnc21"
target_or_system = "ERK4"
value_units = "%"
recorded_result = 26

[[record]]
chemical_string = "CC(=O)Nc1nc2cnc(Nc3cc(NC(=O)c4cccc(C5(C#N)CC5)c4Cl)ccc3C)nc2s1"
target_or_system = "ERK4"
value_units = "%"
recorded_result = 0

[[record]]
chemical_string = "Nc1ncc(-c2ccc3nccc(-c4ccncc4)c3c2)cc1S(=O)(=O)N1CCOCC1"
target_or_system = "ERK4"
value_units = "%"
recorded_result = 10

[[record]]
chemical_string = "C[C@@H]1CC[C@@H](C(=O)Nc2ccccc2)CN1c1cc(-c2ccc3c(N)n[nH]c3c2)nc(N)n1"
target_or_system = "ERK4"
value_units = "%"
recorded_result = 28


I have this compound here, Cl.c1ccc(-c2ccc3c(Nc4ccc5[nH]ncc5c4)ccnc3c2)nc1 , and I need its recorded %Inh.
34

Request the reported %Inh associated with Nc1ncnc2c1nc(-c1ccccc1)n2-c1ccccc1
0

Which %Inh is listed for CCCCc1nn2ncccc2c1-c1ccnc(Nc2ccc(N3CCN(C)CC3)cc2)n1 ?
0

Would you mind telling me what %Inh value was observed for COc1cc(Nc2nccc(-c3c(-c4cccc(NC(=O)c5c(F)cccc5F)c4)nn4ccccc34)n2)cc(OC)c1OC ?
3

---

Test system: PIM2
experimental_setup: concentration: 1 μM, replicates: in singlicate; n = 1
%Inh: recorded values
Respond numerically; units are % and should not be typed.

Example molecules with recorded %Inh:
[[record]]
chemical_string = "COc1ccc(Nc2nccc(NCCNC(=O)c3cc4ccccc4s3)n2)cc1"
value_units = "%"
recorded_result = 0

[[record]]
chemical_string = "Nc1ncc(-c2cccnc2)c2scc(-c3ccc4c(c3)CCN4C(=O)Cc3ccccc3)c12"
value_units = "%"
recorded_result = 0

[[record]]
chemical_string = "Cc1cccc(NC(=O)Nc2ccc(Oc3ncnc4ccn(C)c34)cc2)c1"
value_units = "%"
recorded_result = 0


Any idea what %Inh was measured for CCn1c(-c2nonc2N)nc2c(C#CC(C)(C)O)nc(OC[C@H](N)c3ccccc3)cc21 ?
23
